- Assay Explanation: Probe fluorescence ratio response to linolenic acid relative to ADIFAB2
- Assay type: binding
- Run Conditions: response relative to ADIFAB2
The reader will find reported DR/DR LNA values listed item by item below.
Value Type: DR/DR LNA

INSERT INTO measurements (molecule, value_type, numeric_readout) VALUES
  ('49P1, 72A (protein, listed as Rattus norvegicus, PEPTIDE (1)...(131) wild-type rat intestinal fatty acid binding protein) AFDGTWKVDRNENYEKFMEKMGINVVKRKLGAHDNLKLTITQEGNKFTPKESSNFRNIDVVFELGVDFAYSAADGTELTGTWTMEGNKLVGKFKRVDNGKELIAVREISGNELIQTYTYEGVEAKRIFKKE', 'DR/DR LNA', 1.53),
  ('72S 74A (protein, listed as Rattus norvegicus, PEPTIDE (1)...(131) wild-type rat intestinal fatty acid binding protein) AFDGTWKVDRNENYEKFMEKMGINVVKRKLGAHDNLKLTITQEGNKFTVKESSNFRNIDVVFELGVDFAYSSAAGTELTGTWTMEGNKLVGKFKRVDNGKELIAVREISGNELIQTYTYEGVEAKRIFKKE', 'DR/DR LNA', 2.002),
  ('47L2, L72A (protein, listed as Rattus norvegicus, PEPTIDE (1)...(131) wild-type rat intestinal fatty acid binding protein) AFDGTWKVDRNENYEKFMEKMGINVVKRKLGAHDNLKLTITQEGNKLTVKESSNFRNIDVVFELGVDFAYSAADGTELTGTWTMEGNKLVGKFKRVDNGKELIAVREISGNELIQTYTYEGVEAKRIFKKE', 'DR/DR LNA', 1.20),
  ('126I, 72A (protein, listed as Rattus norvegicus, PEPTIDE (1)...(131) wild-type rat intestinal fatty acid binding protein) AFDGTWKVDRNENYEKFMEKMGINVVKRKLGAHDNLKLTITQEGNKFTVKESSNFRNIDVVFELGVDFAYSAADGTELTGTWTMEGNKLVGKFKRVDNGKELIAVREISGNELIQTYTYEGVEAKIIFKKE', 'DR/DR LNA', 0.43),
  ('72S 73P 74I (protein, listed as Rattus norvegicus, PEPTIDE (1)...(131) wild-type rat intestinal fatty acid binding protein) AFDGTWKVDRNENYEKFMEKMGINVVKRKLGAHDNLKLTITQEGNKFTVKESSNFRNIDVVFELGVDFAYSSPIGTELTGTWTMEGNKLVGKFKRVDNGKELIAVREISGNELIQTYTYEGVEAKRIFKKE', 'DR/DR LNA', 3.091),
  ('106L, 72A (protein, listed as Rattus norvegicus, PEPTIDE (1)...(131) wild-type rat intestinal fatty acid binding protein) AFDGTWKVDRNENYEKFMEKMGINVVKRKLGAHDNLKLTITQEGNKFTVKESSNFRNIDVVFELGVDFAYSAADGTELTGTWTMEGNKLVGKFKRVDNGKELIAVLEISGNELIQTYTYEGVEAKRIFKKE', 'DR/DR LNA', 0.364),
  ('72T 73W 74G (protein, listed as Rattus norvegicus, PEPTIDE (1)...(131) wild-type rat intestinal fatty acid binding protein) AFDGTWKVDRNENYEKFMEKMGINVVKRKLGAHDNLKLTITQEGNKFTVKESSNFRNIDVVFELGVDFAYSTWGGTELTGTWTMEGNKLVGKFKRVDNGKELIAVREISGNELIQTYTYEGVEAKRIFKKE', 'DR/DR LNA', 1.702),
  ('51L3, 72A (protein, listed as Rattus norvegicus, PEPTIDE (1)...(131) wild-type rat intestinal fatty acid binding protein) AFDGTWKVDRNENYEKFMEKMGINVVKRKLGAHDNLKLTITQEGNKFTVKLSSNFRNIDVVFELGVDFAYSAADGTELTGTWTMEGNKLVGKFKRVDNGKELIAVREISGNELIQTYTYEGVEAKRIFKKE', 'DR/DR LNA', 1.66),
  ('73H, 72A (protein, listed as Rattus norvegicus, PEPTIDE (1)...(131) wild-type rat intestinal fatty acid binding protein) AFDGTWKVDRNENYEKFMEKMGINVVKRKLGAHDNLKLTITQEGNKFTVKESSNFRNIDVVFELGVDFAYSAHDGTELTGTWTMEGNKLVGKFKRVDNGKELIAVREISGNELIQTYTYEGVEAKRIFKKE', 'DR/DR LNA', 0.25),
  ('72T 73V 74A (protein, listed as Rattus norvegicus, PEPTIDE (1)...(131) wild-type rat intestinal fatty acid binding protein) AFDGTWKVDRNENYEKFMEKMGINVVKRKLGAHDNLKLTITQEGNKFTVKESSNFRNIDVVFELGVDFAYSTVAGTELTGTWTMEGNKLVGKFKRVDNGKELIAVREISGNELIQTYTYEGVEAKRIFKKE', 'DR/DR LNA', 2.597),
  ('36M, 72A (protein, listed as Rattus norvegicus, PEPTIDE (1)...(131) wild-type rat intestinal fatty acid binding protein) AFDGTWKVDRNENYEKFMEKMGINVVKRKLGAHDNMKLTITQEGNKFTVKESSNFRNIDVVFELGVDFAYSAADGTELTGTWTMEGNKLVGKFKRVDNGKELIAVREISGNELIQTYTYEGVEAKRIFKKE', 'DR/DR LNA', 1.08);

Origin of measurements: patent US20060257938A1
